Subject of test: Abf1 (UniProt P14164)
Sequence: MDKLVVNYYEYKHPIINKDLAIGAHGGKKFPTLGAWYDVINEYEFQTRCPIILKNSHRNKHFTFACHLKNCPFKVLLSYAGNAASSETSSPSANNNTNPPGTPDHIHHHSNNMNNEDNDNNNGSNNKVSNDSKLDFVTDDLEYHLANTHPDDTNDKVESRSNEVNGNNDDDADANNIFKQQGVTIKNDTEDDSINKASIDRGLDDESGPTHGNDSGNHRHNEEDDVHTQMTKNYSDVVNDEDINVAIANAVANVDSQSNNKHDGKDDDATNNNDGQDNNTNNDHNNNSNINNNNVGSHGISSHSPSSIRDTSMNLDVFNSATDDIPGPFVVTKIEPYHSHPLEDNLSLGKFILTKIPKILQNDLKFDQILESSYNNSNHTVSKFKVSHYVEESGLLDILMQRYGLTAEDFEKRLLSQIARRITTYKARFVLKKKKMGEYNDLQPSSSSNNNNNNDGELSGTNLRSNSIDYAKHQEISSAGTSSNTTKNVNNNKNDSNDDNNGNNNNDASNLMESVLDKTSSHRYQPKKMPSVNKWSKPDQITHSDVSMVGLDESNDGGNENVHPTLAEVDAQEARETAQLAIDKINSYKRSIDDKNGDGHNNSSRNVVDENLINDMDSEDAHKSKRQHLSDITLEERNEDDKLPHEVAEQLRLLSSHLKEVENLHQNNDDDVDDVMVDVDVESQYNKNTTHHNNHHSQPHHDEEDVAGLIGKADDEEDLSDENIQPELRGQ
Assay method text: PBM E-score (8-mer binding enrichment) (E-score (-0.5 to 0.5)); higher = stronger / more preferred TF binding
Recorded conditions: protein concentration: 200 nM; construct: GST-full length
In all, about 33,000 sequences were measured (“E-score (-0.5 to 0.5)”: median about -0.015, highest 2% from about 0.3 on). What follows is part of a selection rich in the highest values, with near analogues and random picks from the rest.
Decide using PBM E-score: a value greater than or equal to 0.2 is true (1), a smaller one is false (0).

Completed entries (count: 3):
ATACGGAT = true (1)
CTACGGAA = false (0)
ATATCGCA = false (0)

Could you tell me if the measured PBM E-score of "AAATCGTA" reaches 0.2 or more?
true (1)

Could you tell me if the measured PBM E-score of "CGTACCGA" reaches 0.2 or more?
true (1)

Could you tell me if the measured PBM E-score of "ATACGGAA" reaches 0.2 or more?
true (1)

---

Subject of test: Abf1 (UniProt P14164)
Sequence: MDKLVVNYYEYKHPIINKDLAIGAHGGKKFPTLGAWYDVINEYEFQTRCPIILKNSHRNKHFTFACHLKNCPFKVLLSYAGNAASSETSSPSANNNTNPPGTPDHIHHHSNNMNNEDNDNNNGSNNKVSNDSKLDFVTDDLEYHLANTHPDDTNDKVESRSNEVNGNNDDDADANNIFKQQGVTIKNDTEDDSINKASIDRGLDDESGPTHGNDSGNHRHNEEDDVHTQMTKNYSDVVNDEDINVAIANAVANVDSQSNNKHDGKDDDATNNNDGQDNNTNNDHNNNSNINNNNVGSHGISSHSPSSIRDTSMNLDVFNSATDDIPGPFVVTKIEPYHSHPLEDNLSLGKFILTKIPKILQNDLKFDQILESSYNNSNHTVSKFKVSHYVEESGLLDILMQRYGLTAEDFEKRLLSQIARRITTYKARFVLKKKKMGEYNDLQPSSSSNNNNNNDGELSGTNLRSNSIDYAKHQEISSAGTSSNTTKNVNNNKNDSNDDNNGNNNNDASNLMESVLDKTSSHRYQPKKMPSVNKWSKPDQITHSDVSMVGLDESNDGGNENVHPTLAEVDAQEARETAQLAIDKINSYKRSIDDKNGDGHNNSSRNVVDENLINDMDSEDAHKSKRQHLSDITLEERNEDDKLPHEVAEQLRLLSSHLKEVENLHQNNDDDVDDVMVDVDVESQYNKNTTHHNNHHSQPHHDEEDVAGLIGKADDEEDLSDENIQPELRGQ
Assay method text: PBM E-score (8-mer binding enrichment) (E-score (-0.5 to 0.5)); higher = stronger / more preferred TF binding
Recorded conditions: protein concentration: 200 nM; construct: GST-full length
Whole data set: some 33,000 sequences, median “E-score (-0.5 to 0.5)” near -0.015, cut for the highest 2% near 0.3. The list comes from a sample in which the highest values are over-represented; it also holds close analogues and randomly drawn sequences.
Measurement kind: PBM E-score
One number for each entry.

Batch of 8 sequences: report PBM E-score for each.
1. CATCACTA
2. ACGACAAT
3. ATGATCTA
4. CACCGTAA
5. CTATCACA
6. CCAGTCTA
7. CGCCACCA
8. GACGAATA

1. 0.351
2. 0.329
3. 0.297
4. 0.101
5. 0.199
6. -0.227
7. -0.138
8. 0.232

Batch of 8 sequences: report PBM E-score for each.
1. GTTTTCTA
2. CAACTGGA
3. ATTGATCA
4. ACGGTCGC
5. GCGACAAA
6. GTGATCTA
7. ATATGGTG
8. CATCACAC

1: -0.0572; 2: -0.182; 3: 0.267; 4: 0.134; 5: 0.215; 6: 0.407; 7: 0.0579; 8: 0.141

Batch of 3 sequences: report PBM E-score for each.
1. AAAGCTAG
2. GCTCACTA
3. ACATTAGA

1: -0.236; 2: 0.0163; 3: 0.0369
